Target: T1, full-length trimeric SARS-CoV-2 Spike protein (Spike-H6) (SARS-CoV-2, N-glycosylated (22 N-glycosylation sites))
T1 construct: also called trimeric Spike; full-length Spike-H6
Assay: ELISA screen
quantityName: Mean normalized OD (OD)
Please state the figure in OD; there is no need to write the unit.

Clec4e CRD-mouse IgG2a-Fc fusion protein (Fc fusion) YQSSCYFFSTTTLTWSSSLKNCSDMGAHLVVIDTQEEQEFLFRTKPKRKEFYIGLTDQVVEGQWQWVDDTPFTESLSFWDAGEPNNIVLVEDCATIRDSSNSRKNWNDIPCFYSMPWICEGGGSGGGSGGGS; 0.037

// Mean normalized OD value for Clec7a CRD-mouse IgG2a-Fc fusion protein (Fc fusion) HGKSCYLFSFSGNSWYGSKRHCSQLGAHLLKIDNSKEFEFIESQTSSHRINAFWIGLSRNQSEGPWFWEDGSAFFPNSFQVRNTAPQESLLHNCVWIHGSEVYNQICNTSSYSICEGGGSGGGSGGGS : 0

Mean normalized OD for Chodl CRD-mouse IgG2a-Fc fusion protein (Fc fusion) VKHPCYKMAYFHELSSRVSFQEARLACESEGGVLLSLENEAEQKLIESMLQNLTKPGTGISDGDFWIGLLRSGDGQTSGACPDLYQWSDGSSSQFRNWYTDEPSCGSEKCVVMYHQPTANPGLGGPYLYQWNDDRCNMKHNYICKGGGSGGGSGGGS is 0.002

Recorded Mean normalized OD (binder Pla2r1_4 CRD-mouse IgG2a-Fc fusion protein (Fc fusion) GLASCFKVFHSEKVLMKRSWREAEAFCEEFGAHLASFAHIEEENFVNELLHSKFNWTQERQFWIGFNRRNPLNAGSWAWSDGSPVVSSFLDNAYFEEDAKNCAVYKANKTLLPSNCASKHEWICRGGGSGGGSGGGS ): 0.063
